target: cGMP-specific 3',5'-cyclic phosphodiesterase (Homo sapiens, UniProt O76074); test: Inhibition of PDE5 from platelets
The following compounds are shown together with reported IC50 values.
// units = µM; emit number, no label

Sample records with IC50:
Enquiry: Using the record for CCN(CC)Cc1ccc(-c2nn(Cc3ccccc3)c3ccccc23)o1 , report its IC50.
Return: 63

Enquiry: Using the record for OCc1ccc(-c2nn(Cc3ccccc3)c3ccccc23)o1 , report its IC50.
Return: 31.9

Enquiry: Using the record for OCc1ccc(-c2nn(Cc3ccccc3)c3cc(F)ccc23)o1 , report its IC50.
Return: 14

Enquiry: Using the record for Cc1ccc(-c2nn(Cc3ccccc3)c3ccccc23)o1 , report its IC50.
Return: 22.3

Enquiry: Using the record for COCc1ccc(-c2nn(Cc3ccccc3)c3cc(F)ccc23)o1 , report its IC50.
Return: 3.9

Enquiry: Using the record for OCc1ccc(-c2nn(-c3ccccc3)c3ccccc23)o1 , report its IC50.
Return: 36.3

Enquiry: Using the record for COCc1ccc(-c2nn(Cc3ccccc3)c3ccccc23)o1 , report its IC50.
Return: 13.8

As a next step, examine the compound that follows.
Enquiry: Using the record for Cc1ccc2c(-c3ccc(CO)o3)nn(Cc3ccccc3)c2c1 , report its IC50.
Return: 8.4

----------
test: Inhibition of platelet aggregation induced by Collagen (10 uM); assay type: functional; conditions: in the assay text read “10 ug/mL” for “10 uM”
Sorting guide: entries reporting IC50 beneath 100 µM go in the condition met pile, the rest go in the condition not met pile.

Enquiry: Does this compound meet the criterion IC50 < 100 µM? O=C(O)c1ccc(-c2nn(-c3ccccc3)c3ccccc23)o1
Return: condition not met

Enquiry: Does this compound meet the criterion IC50 < 100 µM? OCc1ccc(-c2[nH]nc3ccccc23)o1
Return: condition not met

Enquiry: Does this compound meet the criterion IC50 < 100 µM? CC(=O)Oc1ccccc1C(=O)O [ASPIRIN]
Return: condition not met

Enquiry: Does this compound meet the criterion IC50 < 100 µM? COC(=O)c1ccc(-c2nn(-c3ccccc3)c3ccccc23)o1
Return: condition met

Enquiry: Does this compound meet the criterion IC50 < 100 µM? Cc1ccc2c(-c3ccc(CO)o3)nn(Cc3ccccc3)c2c1
Return: condition met

Enquiry: Does this compound meet the criterion IC50 < 100 µM? O=C(O)c1ccc(-c2nn(Cc3ccccc3)c3cc4c(cc23)OCO4)o1
Return: condition not met

Enquiry: Does this compound meet the criterion IC50 < 100 µM? COC(=O)c1ccc(-c2nn(Cc3ccccc3)c3cc4c(cc23)OCO4)o1
Return: condition not met

Enquiry: Does this compound meet the criterion IC50 < 100 µM? O=C(O)c1cccc(-c2nn(Cc3ccccc3)c3ccccc23)c1
Return: condition not met

Enquiry: Does this compound meet the criterion IC50 < 100 µM? COc1ccc2c(-c3ccc(C(=O)O)o3)nn(Cc3ccccc3)c2c1
Return: condition not met

Enquiry: Does this compound meet the criterion IC50 < 100 µM? OCc1ccc(-c2nn(-c3ccccc3)c3ccccc23)o1
Return: condition met

Enquiry: Does this compound meet the criterion IC50 < 100 µM? COCc1ccc(-c2nn(Cc3ccccc3)c3cc(OC)ccc23)o1
Return: condition not met

Enquiry: Does this compound meet the criterion IC50 < 100 µM? Cc1ccc(-c2nn(Cc3ccccc3)c3ccccc23)o1
Return: condition met

Enquiry: Does this compound meet the criterion IC50 < 100 µM? COC(=O)c1ccc(-c2nn(Cc3ccccc3)c3ccccc23)o1
Return: condition not met

----------
assay: Inhibition of platelet aggregation induced by thrombin (0.1 unit/ml); assay type: functional
The following molecules are shown together with reported IC50 values.

Enquiry: Using the record for COC(=O)c1ccc(-c2nn(Cc3ccccc3)c3cc(F)ccc23)o1 , report its IC50.
Return: > 270 µM

Enquiry: Using the record for CC(=O)Oc1ccccc1C(=O)O , report its IC50.
Return: > 270 µM

Enquiry: Using the record for OCc1cccc(-c2nn(Cc3ccccc3)c3ccccc23)c1 , report its IC50.
Return: > 270 µM

Enquiry: Using the record for COCc1ccc(-c2nn(Cc3ccccc3)c3cc4c(cc23)OCO4)o1 , report its IC50.
Return: > 270 µM

Next:
Enquiry: Using the record for O=C(O)c1ccc(-c2nn(Cc3ccccc3)c3ccccc23)cc1 , report its IC50.
Return: > 270 µM

Enquiry: Using the record for COC(=O)c1ccc(-c2nn(-c3ccccc3)c3ccccc23)o1 , report its IC50.
Return: > 270 µM

Enquiry: Using the record for OCc1ccc(-c2[nH]nc3ccccc23)o1 , report its IC50.
Return: > 270 µM

Enquiry: Using the record for O=C(O)c1ccc(-c2nn(-c3ccccc3)c3ccccc23)o1 , report its IC50.
Return: > 270 µM

Enquiry: Using the record for COc1ccc2c(-c3ccc(C(=O)O)o3)nn(Cc3ccccc3)c2c1 , report its IC50.
Return: > 270 µM

Enquiry: Using the record for Cc1ccc2c(-c3ccc(C(=O)O)o3)nn(Cc3ccccc3)c2c1 , report its IC50.
Return: > 270 µM

Enquiry: Using the record for O=C(O)c1ccc(-c2nn(Cc3ccccc3)c3cc(F)ccc23)o1 , report its IC50.
Return: > 270 µM

Enquiry: Using the record for COC(=O)c1ccc(-c2nn(Cc3ccccc3)c3cc(OC)ccc23)o1 , report its IC50.
Return: > 270 µM

Enquiry: Using the record for CCOC(=O)c1cccc(-c2nn(Cc3ccccc3)c3ccccc23)c1 , report its IC50.
Return: > 270 µM

Enquiry: Using the record for COC(=O)c1ccc(-c2nn(Cc3ccccc3)c3cc(C)ccc23)o1 , report its IC50.
Return: > 270 µM
